Let's look at some molecules and their measured pIC50.
Target: Nitric oxide synthase 3 (Homo sapiens)
Experiment: Inhibition of human Endothelial cells eNOS
Conceptually, pIC50 converts a concentration in mol/L into minus its log10.

N=C(Nc1ccc2c(c1)CNCC2)c1cccs1 ... 5.00

-- ask Please give the measured pIC50 for this molecule: CN1CCc2ccc(NC(=N)c3cccs3)cc2C1
-- reply 4.62

* * *

Test: Permeability of the compound across blood brain barrier at pH 7.4 at 12.5 uM incubated for 4 hrs by PAMPA assay
Assay type: ADME
Conditions: read-out: permeability
Measure: Papp at 4 h, 12.5 µM (×10⁻⁶ cm/s)
Just the number please, in ×10⁻⁶ cm/s, no unit attached.

-- ask Query: Papp at 4 h, 12.5 µM; subject: COC(=O)C[C@H](NC(=O)[C@@H](C)NCCC1CCCCC1)C(=O)N[C@H](C)C(=O)N[C@@H](C(=O)O)C(C)C
-- reply 6.07

* * *

Biological target: Nitric oxide synthase 3 (Homo sapiens, UniProt P29474)
Sequence (P29474 whole entry): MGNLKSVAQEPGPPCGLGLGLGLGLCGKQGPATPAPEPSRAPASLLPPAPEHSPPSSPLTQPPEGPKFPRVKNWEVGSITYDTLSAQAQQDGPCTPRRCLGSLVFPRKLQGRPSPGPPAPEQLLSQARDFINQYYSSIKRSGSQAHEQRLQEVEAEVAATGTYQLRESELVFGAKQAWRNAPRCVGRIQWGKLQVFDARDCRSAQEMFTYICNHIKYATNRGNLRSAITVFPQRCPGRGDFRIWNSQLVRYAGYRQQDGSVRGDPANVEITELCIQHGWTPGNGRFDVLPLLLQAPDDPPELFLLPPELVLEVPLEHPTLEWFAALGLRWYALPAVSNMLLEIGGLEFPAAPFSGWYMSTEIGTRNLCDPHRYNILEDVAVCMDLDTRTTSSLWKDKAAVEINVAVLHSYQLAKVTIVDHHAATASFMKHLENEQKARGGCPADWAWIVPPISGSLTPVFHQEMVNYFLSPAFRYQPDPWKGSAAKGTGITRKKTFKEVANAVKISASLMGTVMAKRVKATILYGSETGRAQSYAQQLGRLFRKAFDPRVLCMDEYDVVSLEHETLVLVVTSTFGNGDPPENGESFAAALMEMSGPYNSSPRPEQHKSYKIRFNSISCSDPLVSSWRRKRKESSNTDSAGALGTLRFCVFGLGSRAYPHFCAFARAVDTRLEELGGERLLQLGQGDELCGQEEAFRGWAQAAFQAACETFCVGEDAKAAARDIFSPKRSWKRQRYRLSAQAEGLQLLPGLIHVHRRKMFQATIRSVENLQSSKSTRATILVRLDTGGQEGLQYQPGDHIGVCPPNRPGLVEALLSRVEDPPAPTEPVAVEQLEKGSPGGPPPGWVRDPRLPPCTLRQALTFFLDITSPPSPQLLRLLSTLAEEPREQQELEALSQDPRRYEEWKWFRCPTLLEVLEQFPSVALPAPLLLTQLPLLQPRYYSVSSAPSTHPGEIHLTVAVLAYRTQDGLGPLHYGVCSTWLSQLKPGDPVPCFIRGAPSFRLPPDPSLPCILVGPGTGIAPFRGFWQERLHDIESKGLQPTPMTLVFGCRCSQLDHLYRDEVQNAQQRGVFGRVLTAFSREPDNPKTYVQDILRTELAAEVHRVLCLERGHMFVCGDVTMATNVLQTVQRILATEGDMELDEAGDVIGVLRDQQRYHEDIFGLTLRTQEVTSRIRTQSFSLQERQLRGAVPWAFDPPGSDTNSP
pKi: −log10 of the molar value.
Measure: pKi

-- ask Lookup: pKi / Nitric oxide synthase 3 (Homo sapiens, UniProt P29474) / N=C(N)NN
-- reply < 2.10

* * *

Molecular target: UniProtKB Q9Z0J4
Sequence (Q9Z0J4 whole entry): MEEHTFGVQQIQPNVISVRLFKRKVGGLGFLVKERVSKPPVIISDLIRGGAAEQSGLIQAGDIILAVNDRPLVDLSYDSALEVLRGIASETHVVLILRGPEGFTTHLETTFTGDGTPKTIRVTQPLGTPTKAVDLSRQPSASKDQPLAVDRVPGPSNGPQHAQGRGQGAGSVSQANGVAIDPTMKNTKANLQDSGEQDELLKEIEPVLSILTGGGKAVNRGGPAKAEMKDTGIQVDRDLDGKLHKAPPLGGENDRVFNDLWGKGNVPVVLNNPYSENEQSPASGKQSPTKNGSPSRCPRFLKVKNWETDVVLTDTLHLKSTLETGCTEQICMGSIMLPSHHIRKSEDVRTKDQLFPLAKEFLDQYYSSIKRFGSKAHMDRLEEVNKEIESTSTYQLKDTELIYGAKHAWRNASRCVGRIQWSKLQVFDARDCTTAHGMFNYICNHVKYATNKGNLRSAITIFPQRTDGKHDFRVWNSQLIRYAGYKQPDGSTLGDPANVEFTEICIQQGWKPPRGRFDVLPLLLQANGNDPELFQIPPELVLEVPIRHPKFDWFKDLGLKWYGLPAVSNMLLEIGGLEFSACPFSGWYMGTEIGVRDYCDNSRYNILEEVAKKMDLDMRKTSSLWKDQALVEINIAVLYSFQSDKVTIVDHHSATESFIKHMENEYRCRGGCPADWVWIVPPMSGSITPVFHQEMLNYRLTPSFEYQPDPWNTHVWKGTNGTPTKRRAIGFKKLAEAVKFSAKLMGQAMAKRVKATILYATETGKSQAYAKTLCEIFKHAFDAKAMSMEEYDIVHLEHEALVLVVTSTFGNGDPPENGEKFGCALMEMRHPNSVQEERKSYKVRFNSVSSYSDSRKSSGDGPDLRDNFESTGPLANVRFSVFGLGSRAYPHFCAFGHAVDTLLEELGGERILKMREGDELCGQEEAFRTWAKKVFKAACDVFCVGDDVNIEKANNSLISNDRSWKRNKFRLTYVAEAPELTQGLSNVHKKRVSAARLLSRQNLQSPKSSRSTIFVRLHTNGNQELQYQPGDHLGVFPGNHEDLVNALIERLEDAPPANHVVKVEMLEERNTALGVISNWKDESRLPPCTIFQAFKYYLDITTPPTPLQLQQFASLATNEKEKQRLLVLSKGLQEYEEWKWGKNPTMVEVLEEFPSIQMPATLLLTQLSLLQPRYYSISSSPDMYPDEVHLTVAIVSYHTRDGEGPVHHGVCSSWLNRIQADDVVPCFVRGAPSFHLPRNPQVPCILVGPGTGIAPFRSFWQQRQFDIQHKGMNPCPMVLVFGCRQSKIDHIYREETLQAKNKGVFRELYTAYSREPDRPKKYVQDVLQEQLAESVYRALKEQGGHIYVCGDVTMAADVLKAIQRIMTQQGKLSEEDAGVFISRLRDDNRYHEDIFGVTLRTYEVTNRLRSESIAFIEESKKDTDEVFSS
Measure: pIC50
Here pIC50 is given on a logarithmic scale as minus log10 of the concentration in mol/L.

-- ask Consider the molecule FC(F)(F)c1ccccc1-n1ccnc1 and give its measured pIC50.
-- reply 4.55
